Data credit: patent US20090227619A1

IC50 for assorted compounds
Tested on: Hela
Experiment: In vitro cytotoxicity, IC50 by MTT method, Hela
Format: cell-based
Details: Homo sapiens; Hela cell strain; read-out: IC50 Hela
Just the number please, in µM, no unit attached.

// known answers, use as guide
| Compound | IC50 / µM |
| --- | --- |
| CCCc1nc(C(=O)O)cc2c3ccccc3n(Cc3ccccc3)c12 | 160 |
| COC(=O)c1cc2c3ccccc3n(C)c2cn1 | 180 |
| CCOC(=O)c1cc2c3ccccc3n(CCCc3ccccc3)c2c(C)n1 | 40 |

Exercise: Consider the compound CCCc1nc(C(=O)O)cc2c3ccccc3n(C)c12 and give its measured IC50.
Key: 960

Exercise: Consider the compound OCc1cc2c3ccccc3n(Cc3ccccc3)c2cn1 [Compound 42, 9-benzyl-3-hydroxymethyl-β-carboline] and give its measured IC50.
Key: 120

Exercise: Consider the compound CCn1c2ccccc2c2cc(C(=O)OC)ncc21 [Compound 27, methyl 9-ethyl-β-carboline-3-carboxylate] and give its measured IC50.
Key: 210

---

pIC50 for assorted compounds
Test system: Bel-7402
Assay: In vitro cytotoxicity, IC50 by MTT method, Bel-7402
Format: cell-based
Details: Homo sapiens, Bel-7402; Bel7402 cell strain; read-out: IC50 Bel7402
pIC50: −log10 of the molar value.

| Compound | Result |
| --- | --- |
| CCCCOC(=O)c1cc2c3ccccc3n(C)c2cn1 [Compound 38, butyl 9-methyl-β-carboline-3-carboxylate] | < 2.52 |
| CCCCOC(=O)c1cc2c3ccccc3n(Cc3ccccc3)c2cn1 [Compound 41, butyl 9-benzyl-β-carboline-3-carboxylate] | < 2.52 |

Shift focus to the following entry.
Exercise: Find pIC50 (Bel-7402) for the entry CCCc1nc(C(=O)O)cc2c3ccccc3n(C)c12
Key: < 2.52

---

System: NIH3T3
Test: In vitro cytotoxicity, IC50 by MTT method, NIH3T3
Format: cell-based
Conditions: Mus musculus; NIH3T3 cell strain; read-out: IC50 NIH3T3
Attribute measured: IC50 (µM)
Just the number please, in µM, no unit attached.

// known answers, use as guide
| Compound | Attribute measured | Quantitative readout |
| --- | --- | --- |
| CCOC(=O)c1cc2c3ccccc3n(Cc3ccccc3)c2c(C)n1 [Compound 58] | IC50 | 1820 |
| CCn1c2ccccc2c2cc(C(=O)O)ncc21 [Compound 35, 9-ethyl-β-carboline-3-carboxylic acid] | IC50 | 140 |
| CCCCOC(=O)c1cc2c3ccccc3n(CC)c2cn1 [Compound 39, butyl 9-ethyl-β-carboline-3-carboxylate] | IC50 | 80 |

Exercise: Find IC50 (NIH3T3) for the entry CCCc1nc(C(=O)OCC)cc2c3ccccc3n(CCCc3ccccc3)c12 [Compound 71]
Key: 190

Exercise: Find IC50 (NIH3T3) for the entry CCOC(=O)c1cc2c3ccccc3n(Cc3ccccc3)c2cn1 [Compound 33, ethyl 9-benzyl-β-carboline-3-carboxylate]
Key: 50

Exercise: Find IC50 (NIH3T3) for the entry CCOC(=O)c1cc2c3ccccc3n(CC)c2c(C)n1 [Compound 57]
Key: 60

Exercise: Find IC50 (NIH3T3) for the entry CCCCn1c2ccccc2c2ccncc21 [Compound 83, 9-n-butyl-β-carboline]
Key: 80

Exercise: Find IC50 (NIH3T3) for the entry COC(=O)c1cc2c3ccccc3n(Cc3ccccc3)c2cn1 [Compound 29]
Key: 360

Exercise: Find IC50 (NIH3T3) for the entry Cn1c2ccccc2c2ccncc21 [Compound 81, 9-methyl-β-carboline]
Key: 120

Exercise: Find IC50 (NIH3T3) for the entry CCOC(=O)c1cc2c3ccccc3n(C)c2cn1 [Compound 30, ethyl 9-methyl-β-carboline-3-carboxylate]
Key: 100

Exercise: Find IC50 (NIH3T3) for the entry Cc1nc(C(=O)O)cc2c3ccccc3n(Cc3ccccc3)c12 [Compound 64]
Key: 140

Exercise: Find IC50 (NIH3T3) for the entry Cc1nc(C(=O)O)cc2c3ccccc3n(CCCc3ccccc3)c12 [Compound 65]
Key: 110

Exercise: Find IC50 (NIH3T3) for the entry O=C(O)c1cc2c3ccccc3n(CCCc3ccccc3)c2cn1 [Compound 48]
Key: 30

Exercise: Find IC50 (NIH3T3) for the entry CCOC(=O)c1cc2c3ccccc3n(CCCc3ccccc3)c2c(C)n1 [Compound 59]
Key: 30
